Sourced from patent US20110158985A1

Answer each item with its documented kon.
Molecular target: T1, RSV F glycoprotein (NUF4) (respiratory syncytial virus)
T1 chain 1: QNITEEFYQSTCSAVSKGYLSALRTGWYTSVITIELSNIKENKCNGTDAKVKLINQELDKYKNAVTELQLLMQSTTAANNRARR
T1 chain 2: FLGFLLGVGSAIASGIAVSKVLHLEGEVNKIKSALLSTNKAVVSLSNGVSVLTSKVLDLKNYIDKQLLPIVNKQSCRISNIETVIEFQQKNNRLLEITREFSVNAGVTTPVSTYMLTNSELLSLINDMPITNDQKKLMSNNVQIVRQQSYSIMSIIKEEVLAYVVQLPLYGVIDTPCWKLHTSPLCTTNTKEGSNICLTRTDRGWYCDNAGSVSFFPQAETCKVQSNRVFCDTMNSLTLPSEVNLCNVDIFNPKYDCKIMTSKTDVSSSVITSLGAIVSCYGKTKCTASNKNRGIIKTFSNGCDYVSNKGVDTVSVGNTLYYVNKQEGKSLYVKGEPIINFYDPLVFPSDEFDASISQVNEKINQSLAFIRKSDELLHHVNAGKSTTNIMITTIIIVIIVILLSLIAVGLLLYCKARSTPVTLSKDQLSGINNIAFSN
Experiment: SPR (BIAcore), mAb vs NUF4 (2:1)
Answers are plain numbers, in M⁻¹ s⁻¹.

P12f2 IgG (antibody, V domains shown) VH: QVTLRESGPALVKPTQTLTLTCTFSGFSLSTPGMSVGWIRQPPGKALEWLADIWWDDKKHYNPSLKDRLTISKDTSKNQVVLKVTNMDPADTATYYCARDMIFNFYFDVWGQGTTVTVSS VL: DIQMTQSPSTLSASVGDRVTITCSLSSRVGYMHWYQQKPGKAPKLLIYDTFYLSSGVPSRFSGSGSGTEFTLTISSLQPDDFATYYCFQGSGYPFTFGGGTKVEIKR
282000

Turning now to a further record.
So what's the measured kon for this one? A13c4 IgG (antibody, V domains shown) VH: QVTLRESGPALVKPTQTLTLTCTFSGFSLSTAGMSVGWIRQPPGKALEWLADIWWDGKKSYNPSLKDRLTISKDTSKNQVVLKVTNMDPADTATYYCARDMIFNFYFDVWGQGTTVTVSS VL: DIQMTQSPSTLSASVGDRVTITCSLSSRVGYMHWYQQKPGKAPKLLIYDTMYQSSGVPSRFSGSGSGTEFTLTISSLQPDDFATYYCFQGSGYPFTFGGGTKVEIKR
320000
